Reference for the values: paper PMC9482650

molecular target: MAGI2_2, Q86UL8; assay: holdup assay; parameters: key: below the threshold = too weak to quantify, mostly under pKd 3.1 to 4; details: plain residues with an end cap or a label only (N-terminal biotin on a linker: ado-ado)
Sequence (Q86UL8 410-522): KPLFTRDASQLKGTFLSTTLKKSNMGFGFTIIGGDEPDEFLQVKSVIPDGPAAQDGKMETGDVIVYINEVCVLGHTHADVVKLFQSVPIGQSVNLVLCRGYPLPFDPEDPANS
ASSAY_ENDPOINT: pKd

1) IGHEDLETAV [DGKI, O75912]
3.74
2) THREVKFTSL [CD46, P15529]
3.88
3) DSEEELPTRL [GRK6, P43250]
3.54
4) PEKVSNTTVV [IGSF5, Q9NSI5]
4.13
5) DAAHHDESNC [FMNL3, Q8IVF7]
below the threshold
6) GVHSNDHSVV [LPAR1, Q92633]
3.69
7) LLQEEWETVM [PTH1R, Q03431]
below the threshold
8) PDSYHRRDFW [U2AF2, P26368]
below the threshold
9) PLPPEEESWV [GAS2L2, Q8NHY3]
below the threshold
10) PAALPESTHM [SLC9A3, P48764]
below the threshold
11) KEKASTETEC [TRPM1, Q7Z4N2]
below the threshold
12) KSRPENGTVC [TMEM178B, H3BS89]
below the threshold
13) PALKNGQYWV [CSPG4, Q6UVK1]
below the threshold
14) PSVYSRSQYV [CLDN8, P56748]
below the threshold
15) VCMGDHWFDV [PRKN, O60260]
below the threshold
16) RSPVATATSC [DUSP5, Q16690]
below the threshold
